# reported Kd; entries follow
# target.system: T1, human HVEM:Fc (Fc of human IgG1) (human, UniProt Q92956 39-184)
# T1 construct: range 1-184; Bivalent chimeric protein made with baculovirus vector pVL1392; also called huHVEM:Fc; hu HVEM:Fc; not shown: Fc region of human IgG1
# T1 sequence (looked up): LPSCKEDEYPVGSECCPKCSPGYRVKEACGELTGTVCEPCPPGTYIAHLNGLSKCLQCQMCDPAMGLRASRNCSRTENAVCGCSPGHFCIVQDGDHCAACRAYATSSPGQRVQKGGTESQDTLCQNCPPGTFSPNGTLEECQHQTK
# procedure.text: SPR (BIAcore 1000), receptor:Fc amine-coupled to CM5 chip, LIGHT as analyte 100-500 nM, 25 C
# value in nM; strip the unit string

Past entries and their recorded results:
LIGHTt66-FLAG (ligand, not shown: small tags and cut ends, also called soluble homotrimeric LIGHT; recombinant soluble LIGHT) EMVTRLPDGPAGSWEQLIQERRSHEVNPAAHLTGANSSLTGSGGPLLWETQLGLAFLRGLSYHDGALVVTKAGYYYIYSKVQLGGVGCPLGLASTITHGLYKRTPRYPEELELLVSQQSPCGRATSSSRVWWDSSFLGGVVHLEAGEEVVVRVLDERLVRLRDGTRSYFGAFMV = 3.9
LIGHT t66 G119E (ligand, not shown: small tags and cut ends, FLAG-tagged point mutant from transiently transfected 293T cells, homotrimer; also called LIGHTG119E; LIGHT-G119E) EMVTRLPDGPAGSWEQLIQERRSHEVNPAAHLTGANSSLTGSGGPLLWETQLELAFLRGLSYHDGALVVTKAGYYYIYSKVQLGGVGCPLGLASTITHGLYKRTPRYPEELELLVSQQSPCGRATSSSRVWWDSSFLGGVVHLEAGEEVVVRVLDERLVRLRDGTRSYFGAFMV = 114

The recorded Kd for entry LIGHT t66 Y173F (ligand, not shown: small tags and cut ends, FLAG-tagged point mutant from transiently transfected 293T cells, homotrimer) EMVTRLPDGPAGSWEQLIQERRSHEVNPAAHLTGANSSLTGSGGPLLWETQLGLAFLRGLSYHDGALVVTKAGYYYIYSKVQLGGVGCPLGLASTITHGLYKRTPRFPEELELLVSQQSPCGRATSSSRVWWDSSFLGGVVHLEAGEEVVVRVLDERLVRLRDGTRSYFGAFMV equals 173

The recorded Kd for entry LIGHT t66 Q117T (ligand, not shown: small tags and cut ends, FLAG-tagged point mutant from transiently transfected 293T cells, homotrimer; also called Q11TT) EMVTRLPDGPAGSWEQLIQERRSHEVNPAAHLTGANSSLTGSGGPLLWETTLGLAFLRGLSYHDGALVVTKAGYYYIYSKVQLGGVGCPLGLASTITHGLYKRTPRYPEELELLVSQQSPCGRATSSSRVWWDSSFLGGVVHLEAGEEVVVRVLDERLVRLRDGTRSYFGAFMV equals 0.3
